- System: T-47D breast
- Assay procedure: NCI tumour cell line growth inhibition, 48 h
Measurement label: GI50

# count of solved cases: 3
COc1ccc(S(=O)(=O)NCCCNc2nccc(-c3c(-c4ccc(F)cc4)nc4sccn34)n2)cc1 | 3240 nM
COc1cc2c(cc1OCCCN1CCN(CCCn3c4ccccc4c4ccccc43)CC1)N=C[C@@H]1CCCN1C2=O | 206 nM
O=C1C(=O)c2c(ccc3ccccc23)-c2ccccc21 | 1750 nM

Task item: // returns reported GI50 for input `COc1cccc2c(Nc3ccc(C(=O)NCCN4CCNCC4)cc3)cc(-c3ccccc3)nc12`
Reply: 29400 nM

###

- Tested on: SNB-78 CNS
- Assay procedure: NCI tumour cell line growth inhibition, 48 h
Entries annotated with measured TGI

COC(=O)c1ccccc1NCc1cc(O)ccc1O | 66.6 µM

Task item: For SNB-78 CNS, provide TGI of `CCCCCCCCCCCCCCCC(=O)NCC(OCC)OCC` please.
Reply: > 100 µM

Task item: For SNB-78 CNS, provide TGI of `Cn1ncc2c(c1=O)Nc1ccccc1S2(=O)=O` please.
Reply: > 100 µM

###

Entries annotated with measured TGI
- System: NCI/ADR-RES ovarian
- Assay procedure: NCI tumour cell line growth inhibition, 48 h

# count of solved cases: 5
CNC(=O)N(C)C(=O)c1ccccc1C(=O)N(C)C(=O)NC | > 10 µM
O=C(c1ccccc1)c1ccc(N2C(=O)C3C4c5ccccc5C(/C=C/C(=O)c5ccccn5)(c5ccccc54)C3C2=O)cc1 (stereo unspecified) | 12.8 µM
CC(=O)Oc1c(OC(C)C)cc(=O)n2ccsc12 | > 100 µM
N=c1sc(N2CCOCC2)nn1CC(=O)c1ccccc1 | > 100 µM
Cc1cccc(Cc2cnc(NC(=O)CCCOc3ccc(Cl)cc3)s2)c1 | > 100 µM

Task item: // returns reported TGI for input `CC(=O)OCc1cc2c(s1)C(=O)c1sccc1C2=O`
Reply: 0.413 µM

Task item: // returns reported TGI for input `COc1ccc2c(C=O)c3n(c(=O)c2c1OC)CCc1cc2c(cc1-3)OCO2`
Reply: > 100 µM

Task item: // returns reported TGI for input COC(=O)C(NC(=O)c1ccccc1)c1ccc(OC)c(I)c1 (stereo unspecified)
Reply: > 100 µM

Task item: // returns reported TGI for input `O=C1OC(c2ccccc2)=N/C1=C\c1ccc(N(CCCl)CCCl)cc1`
Reply: > 100 µM

Task item: // returns reported TGI for input Cc1ccc(C(=O)C2CC3(CCC2(O)c2ccc(C)cc2)CC(=O)Nc2ccccc2C3=O)cc1 (stereo unspecified)
Reply: > 100 µM

Task item: // returns reported TGI for input `Cc1c(-c2ccc(N3CCc4cccc(C(=O)Nc5nc6ccccc6s5)c4C3)nc2C(=O)O)cnn1CC12CC3CC(CC(C3)C1)C2`
Reply: 38 µM

Task item: // returns reported TGI for input `Nc1nc2c(c(-c3ccc(F)cc3)n1)COC/C2=C\c1ccc(F)cc1`
Reply: > 100 µM

Task item: // returns reported TGI for input `CCN(CC)CCCNc1nnc(C)c2[nH]c3ccccc3c12`
Reply: > 100 µM

Task item: // returns reported TGI for input CC(=O)OC1CCC2(C)C(=CCC3C4CC(CN5CC5)C(=O)C4(C)CCC32)C1 (stereo unspecified)
Reply: 41.5 µM

Task item: // returns reported TGI for input `CCCCCCCCCCCC1=C(O)C(=O)C=C(O)C1=O`
Reply: 16.4 µM

Task item: // returns reported TGI for input `CN1CCN(Cc2ccc(NC(=O)c3cncc(C#Cc4cnc5cccnn45)c3)cc2C(F)(F)F)CC1`
Reply: 8.1 µM

Task item: // returns reported TGI for input `O=C1C(=O)c2c(ccc3ccccc23)-c2ccccc21`
Reply: 5.88 µM

Task item: // returns reported TGI for input `FC(F)(Sc1nc2ccccc2[nH]1)c1nc2ccccc2o1`
Reply: > 100 µM

Task item: // returns reported TGI for input CC(=O)Nc1ccc(C(=O)NN2C(=O)CSC2c2ccccc2)cc1 (stereo unspecified)
Reply: > 100 µM

Task item: // returns reported TGI for input `Nc1c(/C=C/c2cc3cc(C4=NCCN4)ccc3o2)[nH]c2cc(C3=NCCN3)ccc12`
Reply: > 100 µM

Task item: // returns reported TGI for input `CCOC(=O)c1c(SCCN(CC)CC)n(-c2ccccc2)c(=S)n(-c2ccccc2)c1=O`
Reply: > 100 µM

Numbers sourced from PubChem BioAssay (NCI).
